- System: Protease enzyme
- assay_name: Residual protease activity in liquid detergent formulation after storage at 37° C. (tetrapeptide substrate assay)
- Assay type: biochemical
- test_parameters: 'base' liquid detergent formulation + 0.06% by weight perfume component, no BHT; 4 weeks storage at 37° C.; activity determined at 40° C., TRIS pH 9, relative to t=0
- Method: To various samples of this ‘base’ liquid formulation 0.06% by weight based on said formulation of several types of perfume component—as indicated in the tables below—were added such that, as a result, each sample contains a different type of perfume component. […] The residual activity of the protease enzyme in all thus-formed formulations after 2 weeks and 4 weeks storage at 37° C., was determined at 40° C. in a TRIS pH 9 buffer and using tetrapeptide as substrate. […]
The entries below are paired with their reported Residual activity after 4 weeks, No BHT.
Please give a number only; it is taken to be in %.

// below: answered molecules
INSERT INTO measurements (molecule, measured_value) VALUES
  ('CCCCCCCCCCC=CC=O [Tridecyclenaldehyde]', 4),
  ('CC(C=O)Cc1ccc(C(C)(C)C)cc1 (stereo not drawn) [Lilial]', 9),
  ('CC1=CC(C)C(C=O)CC1 (stereo not drawn) [Zestover]', 5),
  ('CC(C)=C1CC[C@@H](C)CC1=O [Pulegone]', 16),
  ('CCC(=O)/C=C/C1C(C)=CCCC1(C)C (stereo not drawn) [Alpha methylionone]', 14);

Lab note: next molecule to report on.
Query: Request body: readout Residual activity after 4 weeks, No BHT, system Protease enzyme, query CC1=CCC(=C(C)C)CC1 [Terpinolene] . Return the value.
Result: 17

###

- Test system: Protease enzyme
- assay_name: Residual protease activity in liquid detergent formulation after storage at 37° C. (tetrapeptide substrate assay)
- Type: biochemical
- test_parameters: 'base' liquid detergent formulation + 0.06% by weight perfume component + 0.05% by weight BHT; 2 weeks storage at 37° C.; activity determined at 40° C., TRIS pH 9, relative to t=0
property_label: Residual activity after 2 weeks, 0.05% BHT (%)
Please give a number only; it is taken to be in %.

// below: answered compounds
INSERT INTO results (compound, measured_value) VALUES
  ('CC1=CCC(=C(C)C)CC1', 85),
  ('CC1=CC(C)C(C=O)CC1 (stereo not drawn)', 82),
  ('CC(C=O)Cc1ccc(C(C)(C)C)cc1 (stereo not drawn)', 80),
  ('CC(C)=C1CC[C@@H](C)CC1=O', 82),
  ('CCCCCCCCCCC=CC=O', 70);

Query: Request body: readout Residual activity after 2 weeks, 0.05% BHT, system Protease enzyme, query CCC(=O)/C=C/C1C(C)=CCCC1(C)C (stereo not drawn) . Return the value.
Result: 84

###

- System: Protease enzyme
- assay_name: Residual protease activity in liquid detergent formulation after storage at 37° C. (tetrapeptide substrate assay)
- Format: biochemical
- test_parameters: 'base' liquid detergent formulation + 0.06% by weight perfume component, no BHT; 2 weeks storage at 37° C.; activity determined at 40° C., TRIS pH 9, relative to t=0
The entries below are paired with their reported Residual activity after 2 weeks, No BHT.
Please give a number only; it is taken to be in %.

INSERT INTO measurements (molecule, experimental_target, measured_value) VALUES
  ('CCC(=O)/C=C/C1C(C)=CCCC1(C)C (stereo not drawn)', 'Protease enzyme', 39);

Query: Request body: readout Residual activity after 2 weeks, No BHT, system Protease enzyme, query `CCCCCCCCCCC=CC=O` . Return the value.
Result: 14

Query: Request body: readout Residual activity after 2 weeks, No BHT, system Protease enzyme, query CC(C=O)Cc1ccc(C(C)(C)C)cc1 (stereo not drawn) . Return the value.
Result: 39

Query: Request body: readout Residual activity after 2 weeks, No BHT, system Protease enzyme, query CC1=CC(C)C(C=O)CC1 (stereo not drawn) . Return the value.
Result: 16

Query: Request body: readout Residual activity after 2 weeks, No BHT, system Protease enzyme, query `CC(C)=C1CC[C@@H](C)CC1=O` . Return the value.
Result: 45

Query: Request body: readout Residual activity after 2 weeks, No BHT, system Protease enzyme, query `CC1=CCC(=C(C)C)CC1` . Return the value.
Result: 51

###

- System: Protease enzyme
- assay_name: Residual protease activity in liquid detergent formulation after storage at 37° C. (tetrapeptide substrate assay)
- Assay type: biochemical
- test_parameters: 'base' liquid detergent formulation + 0.06% by weight perfume component + 0.05% by weight BHT; 4 weeks storage at 37° C.; activity determined at 40° C., TRIS pH 9, relative to t=0
The entries below are paired with their reported Residual activity after 4 weeks, 0.05% BHT.
Please give a number only; it is taken to be in %.

// below: answered molecules
INSERT INTO measurements (molecule, measured_value) VALUES
  ('CC1=CC(C)C(C=O)CC1 (stereo not drawn) [Zestover]', 72),
  ('CC1=CCC(=C(C)C)CC1 [Terpinolene]', 79),
  ('CCC(=O)/C=C/C1C(C)=CCCC1(C)C (stereo not drawn) [Alpha methylionone]', 78),
  ('CCCCCCCCCCC=CC=O [Tridecyclenaldehyde]', 54),
  ('CC(C=O)Cc1ccc(C(C)(C)C)cc1 (stereo not drawn) [Lilial]', 68);

Lab note: next molecule to report on.
Query: Item under review: CC(C)=C1CC[C@@H](C)CC1=O [Pulegone] . Reported Residual activity after 4 weeks, 0.05% BHT?
Result: 76
